// reported fraction unbound at 16 h, 1 µM for each item listed
# experiment-description: in vitro
# measurement-conditions: mouse, plasma
# Description: Protein binding in mouse plasma at 1 uM after 16 hrs by LC-MS/MS analysis
Output: the number by itself.

# compound, fraction unbound at 16 h, 1 µM
records = [
    ("COc1ccc(S(=O)(=O)Nc2ccc(F)c(C(=O)O)c2)c2ccccc12", 0.0147),
]

Next up:
Query block: Need fraction unbound at 16 h, 1 µM, item CC(C)NCC(O)COc1cccc2ccccc12 (configuration not stated)
Result block: 0.109

====

Measured Ki on Fatty acid-binding protein, adipocyte (Homo sapiens, UniProt P15090) follows.
Sequence (P15090 whole entry): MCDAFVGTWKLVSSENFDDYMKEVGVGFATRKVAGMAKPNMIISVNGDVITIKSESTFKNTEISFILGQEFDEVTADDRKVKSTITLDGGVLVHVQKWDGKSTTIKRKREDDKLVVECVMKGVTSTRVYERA
Express your answer in µM, writing the number without its unit.

# smiles-structure, Ki (µM)
measured = [
    ("COc1ccc(S(=O)(=O)Nc2cc(Cl)cc(C(=O)O)c2)c2ccccc12", 0.82),
]

Query block: Need Ki, item O=C(O)CCCCNS(=O)(=O)c1ccc(Cl)c2ccccc12
Result block: 1.85

Query block: # repeat for O=C(O)CCCNS(=O)(=O)c1cc(Cl)cc(Cl)c1
Result block: 2.55

Query block: # repeat for COc1ccc(S(=O)(=O)Nc2ccc(C(=O)O)cc2)c2ccccc12
Result block: 1.28

Query block: # repeat for COc1ccc(S(=O)(=O)Nc2ccc(CC(=O)O)cc2)c2ccccc12
Result block: 1.67

Query block: # repeat for O=C(O)CCCCNS(=O)(=O)c1ccc(F)c2ccccc12
Result block: 2.16

Query block: # repeat for COc1ccc(S(=O)(=O)Nc2cccc(CC(=O)O)c2)c2ccccc12
Result block: 0.84

Query block: # repeat for O=C(O)CCNS(=O)(=O)c1cc(Cl)cc(Cl)c1
Result block: 6.51

====

// reported remaining at 1 h, 0.1 µM for each item listed
# experiment-description: Stability in rat liver microsomes assessed as parent compound remaining at 0.1 uM after 60 mins by HPLC-MS/MS analysis
# Format: ADME, microsome
# measurement-conditions: read-out: Stability
Write the quantity with the unit trailing the number.

# smiles-structure, remaining at 1 h, 0.1 µM
rows = [
    ("COc1ccc(S(=O)(=O)Nc2ccc(F)c(C(=O)O)c2)c2ccccc12", "93.4%"),
]

Query block: Need remaining at 1 h, 0.1 µM, item COc1ccc(S(=O)(=O)Nc2cc(C(=O)O)ccc2F)c2ccccc12
Result block: 93.9%

====

# experiment-description: Half life in mouse liver microsomes at 0.1 uM by HPLC-MS/MS analysis
# Type: ADME, microsome
metric: half-life at 0.1 µM
Write the quantity with the unit trailing the number.

# smiles-structure, measurement
records = [
    ("COc1ccc(S(=O)(=O)Nc2cc(C(=O)O)ccc2F)c2ccccc12", "14.3 h"),
]

Next up:
Query block: Need half-life at 0.1 µM, item COc1ccc(S(=O)(=O)Nc2ccc(F)c(C(=O)O)c2)c2ccccc12
Result block: 24.6 h

====

# experiment-description: Intrinsic clearance in rat liver microsomes assessed per gram of protein at 0.1 uM by HPLC-MS/MS analysis
# Type: ADME, microsome
metric: CLint (mL/min/g)
Express your answer in mL/min/g, writing the number without its unit.

# smiles-structure, unit-tag, measurement
measured = [
    ("COc1ccc(S(=O)(=O)Nc2ccc(F)c(C(=O)O)c2)c2ccccc12", "mL/min/g", 3.15),
]

Next up:
Query block: Need CLint, item COc1ccc(S(=O)(=O)Nc2cc(C(=O)O)ccc2F)c2ccccc12
Result block: 2.9

====

# experiment-description: Stability in human liver microsomes assessed as parent compound remaining at 0.1 uM after 60 mins by HPLC-MS/MS analysis
# Format: ADME, microsome
# measurement-conditions: read-out: Stability
metric: remaining at 1 h, 0.1 µM (%)
Express your answer in %, writing the number without its unit.

# smiles-structure, unit-tag, remaining at 1 h, 0.1 µM
records = [
    ("COc1ccc(S(=O)(=O)Nc2cc(C(=O)O)ccc2F)c2ccccc12", "%", 73.6),
]

Query block: Need remaining at 1 h, 0.1 µM, item COc1ccc(S(=O)(=O)Nc2ccc(F)c(C(=O)O)c2)c2ccccc12
Result block: 72.3
